# Tgt: T1, CT receptor of human breast tumor cell lines T-47D and MCF-7 (human, UniProt P30988 25-474)
# T1 construct: whole, on cells; Native receptor; also called calcitonin receptor
# T1 sequence (looked up): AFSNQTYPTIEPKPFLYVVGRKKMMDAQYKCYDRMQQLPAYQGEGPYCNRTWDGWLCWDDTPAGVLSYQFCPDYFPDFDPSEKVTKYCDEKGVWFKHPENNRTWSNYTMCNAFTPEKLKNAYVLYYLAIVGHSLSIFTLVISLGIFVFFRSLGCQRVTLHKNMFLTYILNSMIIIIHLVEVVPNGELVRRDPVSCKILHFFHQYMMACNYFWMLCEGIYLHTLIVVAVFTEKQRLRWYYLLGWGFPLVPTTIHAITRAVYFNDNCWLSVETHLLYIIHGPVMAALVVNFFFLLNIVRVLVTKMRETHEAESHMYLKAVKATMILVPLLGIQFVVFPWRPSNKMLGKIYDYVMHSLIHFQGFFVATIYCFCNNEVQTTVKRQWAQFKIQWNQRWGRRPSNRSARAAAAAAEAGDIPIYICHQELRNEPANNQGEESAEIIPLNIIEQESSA
# Measurement description: displacement of 125I-salmon CT, whole T-47D cells
Starred links: 1 amine or outer side, 2 acyl side, 3 side chain; linkers in the order of their positions; H or OH if unused. Positions of bridges follow the written chain, without caps; N, C: chain ends. Non-standard residues stand in square brackets, D forms with d. Groups on a side chain read outwards from the residue. Hhc = homohomocysteine, O=C([C@H](CCCS[*:3])N[*:1])[*:2]; εLys = N[C@@H](CCCCN[*:1])C(=O)[*:2]; hCys = N[C@@H](CCS)C(=O)O
Recorded measurements of pIC50, one per entry
// pIC50 here means minus log10 of the molar concentration (mol/L)

Ask: Entry {CH2CO}-SNLST[Hhc]VLGKLSC([CH2CO-εLys-Gly-Cys-Glu-NH2])ELHKLQTYPRTNTGSGTP-NH2 (thioether N-6; also: ReO complex of chelator on Cys13, Oxorhenium complex; also called Peptide 6 ReO complex) [CH2CO.SNLST.Hhc.VLGKLSC(CH2CO.(ε-K)GCE.amide)ELHKLQTYPRTNTGSGTP.amide•ReO] has what pIC50?
Result: 9.48

Ask: Input {CH2CO}-SNLST[hCys]VLGKLSC([CH2CO-εLys-Gly-Cys-Glu-NH2])ELHKLQTYPRTNTGSGTP-NH2 (thioether N-6; also: ReO complex of chelator on Cys13, Oxorhenium complex; also called Peptide 10 ReO complex) [CH2CO.SNLST.Hcy.VLGKLSC(CH2CO.(ε-K)GCE.amide)ELHKLQTYPRTNTGSGTP.amide•ReO]
Result: 9.05

Where these numbers come from: patent US6479032
